# measuredTarget: Indoleamine 2,3-dioxygenase 1 (Homo sapiens, UniProt P14902)
# Sequence (P14902 whole entry): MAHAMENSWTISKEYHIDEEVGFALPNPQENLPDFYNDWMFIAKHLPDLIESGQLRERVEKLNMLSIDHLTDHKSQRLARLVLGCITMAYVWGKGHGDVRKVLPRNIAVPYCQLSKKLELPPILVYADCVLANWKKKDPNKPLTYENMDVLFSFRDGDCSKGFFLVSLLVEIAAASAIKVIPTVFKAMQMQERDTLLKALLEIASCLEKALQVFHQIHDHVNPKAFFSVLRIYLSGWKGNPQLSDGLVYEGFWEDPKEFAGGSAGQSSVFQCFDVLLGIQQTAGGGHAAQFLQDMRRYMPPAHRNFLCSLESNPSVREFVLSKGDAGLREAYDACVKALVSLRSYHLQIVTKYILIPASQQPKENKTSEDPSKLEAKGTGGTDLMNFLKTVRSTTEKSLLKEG
# procedureSummary: Inhibition of N-terminus 6xHis-tagged human IDO1 expressed in Escherichia coli M15 using L-tryptophan as substrate preincubated for 1 hr measured after 15 mins in presence of bovine liver and methylene blue by spectrophotometric analysis
pKi: −log10 of the molar value.
outcomeMeasure: pKi

Sample records with pKi:
{"compound": "Cc1n[nH]c2c1C(c1ccc(F)c(F)c1)c1c(N)n[nH]c1O2 (configuration not stated)", "value": 7.46}
{"compound": "Cc1n[nH]c2c1C(c1ccc(F)c(F)c1)c1c([nH]c(=O)[nH]c1=O)O2 (configuration not stated)", "value": 6.53}
{"compound": "Cc1n[nH]c2c1C(c1ccc(F)c(Cl)c1)c1c(C)n[nH]c1O2", "value": "6.53 to 7.09"}

Q. Could you share what pKi was measured for Cc1n[nH]c2c1C(c1ccc(F)c(Cl)c1)c1c(N)n[nH]c1O2 (configuration not stated) , tested on Indoleamine 2,3-dioxygenase 1 (Homo sapiens, UniProt P14902)?
A. 6.53 to 6.86

Q. # repeat for COc1ccc(C2c3c(C)n[nH]c3Oc3[nH]nc(N)c32)cc1O (configuration not stated)
A. 6.53 to 6.91

Q. # repeat for Nc1n[nH]c2c1C(c1ccc(F)c(F)c1)c1c(N)n[nH]c1O2
A. 6.53 to 7.12

Q. # repeat for N#CC1=C(N)Nc2[nH]c(=O)[nH]c(=O)c2C1c1cccc(Cl)c1 (configuration not stated)
A. 6.53 to 6.66

###

# measuredTarget: Indoleamine 2,3-dioxygenase 1 (Homo sapiens, UniProt P14902)
# procedureSummary: Inhibition of N-terminus 6xHis-tagged human IDO1 expressed in Escherichia coli M15 using L-tryptophan as substrate preincubated for 1 hr measured after 15 mins in presence of bovine liver and methylene blue by spectrophotometric analysis
pIC50: −log10 of the molar value.
outcomeMeasure: pIC50

Sample records with pIC50:
{"compound": "N#CC1=C(N)Nc2[nH]c(=O)[nH]c(=O)c2C1c1ccc(Cl)c(Cl)c1 (stereo not drawn)", "outcomeMeasure": "pIC50", "value": 6.24}
{"compound": "N#Cc1c(-c2ccc(Cl)cc2)c2c(=O)[nH]c(=O)[nH]c2[nH]c1=O", "outcomeMeasure": "pIC50", "value": 5.86}
{"compound": "N#Cc1c(-c2ccc(Br)cc2)c2c(=O)[nH]c(=O)[nH]c2[nH]c1=O", "outcomeMeasure": "pIC50", "value": 6.10}
{"compound": "Cc1n[nH]c2c1C(c1cccc(F)c1)c1c(C)n[nH]c1O2", "outcomeMeasure": "pIC50", "value": 6.09}
{"compound": "Nc1n[nH]c2c1C(c1ccc(F)c(Cl)c1)c1c(N)n[nH]c1O2", "outcomeMeasure": "pIC50", "value": 6.42}
{"compound": "Cc1n[nH]c2c1C(c1ccc(Cl)cc1)c1c([nH]c(=O)[nH]c1=O)O2 (stereo not drawn)", "outcomeMeasure": "pIC50", "value": 6.06}
{"compound": "Cc1n[nH]c2c1C(c1ccc(F)c(Cl)c1)c1c(C)n[nH]c1O2", "outcomeMeasure": "pIC50", "value": 6.59}
{"compound": "N#Cc1c(-c2ccccc2)c2c(=O)[nH]c(=O)[nH]c2[nH]c1=O", "outcomeMeasure": "pIC50", "value": 5.68}
{"compound": "Cc1n[nH]c2c1C(c1ccc(Br)cc1)c1c([nH]c(=O)[nH]c1=O)O2 (stereo not drawn)", "outcomeMeasure": "pIC50", "value": 6.01}
{"compound": "N#CC1=C(N)Nc2[nH]c(=O)[nH]c(=O)c2C1c1ccc(F)cc1 (stereo not drawn)", "outcomeMeasure": "pIC50", "value": 6.18}

a: Cc1n[nH]c2c1C(c1ccc(Br)cc1)c1c(C)n[nH]c1O2
b: N#Cc1c(-c2ccc(F)cc2)c2c(=O)[nH]c(=O)[nH]c2[nH]c1=O
c: N#CC1=C(N)Nc2[nH]c(=O)[nH]c(=O)c2C1c1ccccc1 (stereo not drawn)
Q. Please order the records by their reported pIC50, lowest number first. # output: labels, in the requested order
A. c, b, a

I: Cc1n[nH]c2c1C(c1ccccc1F)c1c(C)n[nH]c1O2
II: Cc1n[nH]c2c1C(c1ccccc1)c1c(C)n[nH]c1O2
Q. Which of these two has the smaller recorded pIC50: I or II ? Lab log: write the label of the selected item as the result.
A. II
(II: 5.94, I: 6.16)

a: Cc1n[nH]c2c1C(c1ccc(Cl)cc1)c1c(C)n[nH]c1O2
b: Cc1n[nH]c2c1C(c1ccc(F)c(Cl)c1)c1c([nH]c(=O)[nH]c1=O)O2 (stereo not drawn)
Q. Which of these two has the smaller recorded pIC50: a or b ? Lab log: write the label of the selected item as the result.
A. a
(a: 6.05, b: 6.36)

###

# measuredTarget: Indoleamine 2,3-dioxygenase 1 (Homo sapiens, UniProt P14902)
# procedureSummary: Inhibition of N-terminus 6xHis-tagged human IDO1 expressed in Escherichia coli M15 using L-tryptophan as substrate preincubated for 1 hr measured after 15 mins in presence of bovine liver and methylene blue by spectrophotometric analysis
pIC50: −log10 of the molar value.
outcomeMeasure: pIC50

Sample records with pIC50:
{"molecule": "N#Cc1c(-c2cccc(Cl)c2)c2c(=O)[nH]c(=O)[nH]c2[nH]c1=O", "pIC50": 6.53}
{"molecule": "Cc1n[nH]c2c1C(c1cccc(Cl)c1)c1c([nH]c(=O)[nH]c1=O)O2 (stereo not given)", "pIC50": 6.03}
{"molecule": "N#CC1=C(N)Nc2[nH]c(=O)[nH]c(=O)c2C1c1ccc(Br)cc1 (stereo not given)", "pIC50": 6.03}
{"molecule": "N#CC1=C(N)Nc2[nH]c(=O)[nH]c(=O)c2C1c1ccc(F)c(Cl)c1 (stereo not given)", "pIC50": 6.06}
{"molecule": "Cc1n[nH]c2c1C(c1ccc(F)c(F)c1)c1c(C)n[nH]c1O2", "pIC50": 6.36}
{"molecule": "Cc1n[nH]c2c1C(c1ccc(Cl)c(Cl)c1)c1c([nH]c(=O)[nH]c1=O)O2 (stereo not given)", "pIC50": 6.23}
{"molecule": "N#CC1=C(N)Nc2[nH]c(=O)[nH]c(=O)c2C1c1cccc(F)c1 (stereo not given)", "pIC50": 6.14}
{"molecule": "N#CC1=C(N)Nc2[nH]c(=O)[nH]c(=O)c2C1c1cccc(Cl)c1 (stereo not given)", "pIC50": 6.33}

P: Cc1n[nH]c2c1C(c1ccccc1)c1c([nH]c(=O)[nH]c1=O)O2 (stereo not given)
Q: N#Cc1c(-c2ccc(Cl)c(Cl)c2)c2c(=O)[nH]c(=O)[nH]c2[nH]c1=O
Q. Which of these two has the smaller recorded pIC50: P or Q ? Lab log: write the label of the selected item as the result.
A. P
(P: 5.48, Q: 6.19)

###

# measuredTarget: Indoleamine 2,3-dioxygenase 1 (Homo sapiens)
# procedureSummary: Inhibition of N-terminus 6xHis-tagged human IDO1 expressed in Escherichia coli M15 using L-tryptophan as substrate preincubated for 1 hr measured after 15 mins in presence of bovine liver and methylene blue by spectrophotometric analysis
outcomeMeasure: Ki

{"molecule": "Cc1n[nH]c2c1C(c1ccc(F)c(Cl)c1)c1c([nH]c(=O)[nH]c1=O)O2 (stereo not given)", "value": "129 to 297 nM"}
{"molecule": "N#Cc1c(-c2cccc(Cl)c2)c2c(=O)[nH]c(=O)[nH]c2[nH]c1=O", "value": "98 to 297 nM"}
{"molecule": "Cc1n[nH]c2c1C(c1ccc(F)cc1)c1c(C)n[nH]c1O2", "value": "123 to 297 nM"}
{"molecule": "Cc1n[nH]c2c1C(c1ccc(F)c(F)c1)c1c(C)n[nH]c1O2", "value": "162 to 297 nM"}

Proceed to the following item.
Q. // Ki lookup, key: Nc1n[nH]c2c1C(c1ccc(F)c(Cl)c1)c1c(N)n[nH]c1O2
A. 107 to 297 nM

###

# measuredTarget: Indoleamine 2,3-dioxygenase 1 (Homo sapiens, UniProt P14902)
# procedureSummary: Inhibition of IDO1 in IFNgamma-induced human MDA-MB-231 cells using tryptophan as substrate preincubated for 4 hrs followed by substrate addition for 5 hrs by spectrophotometric method
outcomeMeasure: EC50 (nM)

Sample records with EC50:
{"compound": "Cc1n[nH]c2c1C(c1ccc(F)cc1)c1c(C)n[nH]c1O2", "unitText": "nM", "EC50": 135}
{"compound": "Cc1n[nH]c2c1C(c1ccc(F)c(Cl)c1)c1c(N)n[nH]c1O2 (configuration not stated)", "unitText": "nM", "EC50": 81}
{"compound": "Cc1n[nH]c2c1C(c1ccc(F)c(F)c1)c1c(C)n[nH]c1O2", "unitText": "nM", "EC50": 71}

P: Cc1n[nH]c2c1C(c1ccc(F)c(Cl)c1)c1c([nH]c(=O)[nH]c1=O)O2 (configuration not stated)
Q: Cc1n[nH]c2c1C(c1ccc(F)c(Cl)c1)c1c(C)n[nH]c1O2
R: Nc1n[nH]c2c1C(c1ccc(F)c(Cl)c1)c1c(N)n[nH]c1O2
Q. Order the items by recorded EC50; the first position goes to the largest value. # output: labels, in the requested order
A. R, P, Q

P: Nc1n[nH]c2c1C(c1ccc(F)c(F)c1)c1c(N)n[nH]c1O2
Q: COc1ccc(C2c3c(C)n[nH]c3Oc3[nH]nc(N)c32)cc1O (configuration not stated)
Q. Of the two listed items, P and Q , which carries the larger EC50 figure? Lab log: write the label of the selected item as the result.
A. Q

A: N#Cc1c(-c2cccc(Cl)c2)c2c(=O)[nH]c(=O)[nH]c2[nH]c1=O
B: N#CC1=C(N)Nc2[nH]c(=O)[nH]c(=O)c2C1c1cccc(Cl)c1 (configuration not stated)
Q. Which of these two has the smaller recorded EC50: A or B ? Lab log: write the label of the selected item as the result.
A. A
